- Test system: Liver microsome
- protocol: Half life in human liver microsomes
- Assay type: ADME
readout-label: t1/2 (min)

| substance-smiles | value-units | test-result |
| --- | --- | --- |
| O=C(N[C@H](Cc1c[nH]c2ccccc12)C(=O)Nc1ccncc1)c1ccc(-c2ccc(OCc3ccc(F)cc3)c(F)c2)cc1F | min | 15 |
| CC(=O)N1CCN(c2ccc(C(=O)N[C@H](Cc3c[nH]c4ccccc34)C(=O)Nc3ccncc3)c(F)c2)CC1 | min | 64 |

[I] O=C(N[C@H](Cc1c[nH]c2ccccc12)C(=O)Nc1ccncc1)c1ccc(N2CCN(c3cccc(F)c3)CC2)cc1F
[II] O=C(N[C@H](Cc1c[nH]c2ccccc12)C(=O)Nc1ccncc1)c1ccc(-c2cc(C(F)(F)F)ccc2F)cc1F
Ask: Response body: label of entry with the larger t1/2; valid values I , II . Mark your selection by writing its label.
Reply: II

----------
- Tested on: Intestine
- protocol: Drug uptake in mouse intestine at 50 mg/kg, po in 20% Kolliphor measured at 8 hrs post dose
- Assay type: ADME, organism-based
- Set-up: dose 50 mg/kg, route oral
- measurement-parameters: in vivo
readout-label: Drug uptake

The examples below pair each entry with its known result.
| substance-smiles | test-result |
| --- | --- |
| O=C(N[C@H](Cc1c[nH]c2ccccc12)C(=O)Nc1ccncc1)c1ccc(N2CCN(c3cccc(F)c3)CC2)cc1F | Active |
| O=C(N[C@H](Cc1c[nH]c2ccccc12)C(=O)Nc1ccncc1)c1ccc(N2CCN(c3cccc(Cl)c3)CC2)cc1F | Active |
| O=C(N[C@H](Cc1c[nH]c2ccccc12)C(=O)Nc1ccncc1)c1ccc(N2CCN(c3ccc(F)cc3F)CC2)cc1F | Active |
| O=C(N[C@H](Cc1c[nH]c2ccccc12)C(=O)Nc1ccncc1)c1ccc(-c2ccc(F)c(Cl)c2)cc1F | Active |
| O=C(N[C@H](Cc1c[nH]c2ccccc12)C(=O)Nc1ccncc1)c1ccc(-c2cccc(C(F)(F)F)c2)cc1F | Active |

Ask: Which Drug uptake is reported for this compound? "O=C(N[C@H](Cc1c[nH]c2ccccc12)C(=O)Nc1ccncc1)c1ccc(-c2ccc(F)c(C(F)(F)F)c2)cc1F"
Reply: Active

Ask: Field entry: "CC(=O)N1CCN(c2ccc(C(=O)N[C@H](Cc3c[nH]c4ccccc34)C(=O)Nc3ccncc3)c(F)c2)CC1"
Reply: Active

Ask: Field entry: "O=C(N[C@H](Cc1c[nH]c2ccccc12)C(=O)Nc1ccncc1)c1ccc(-c2cc(F)ccc2F)cc1F"
Reply: Active

Ask: Field entry: "O=C(N[C@H](Cc1c[nH]c2ccccc12)C(=O)Nc1ccncc1)c1ccc(-c2ccc(OCc3ccc(F)cc3)c(F)c2)cc1F"
Reply: Active

Ask: Field entry: "O=C(N[C@H](Cc1c[nH]c2ccccc12)C(=O)Nc1ccncc1)c1ccc(-c2cc(C(F)(F)F)ccc2F)cc1F"
Reply: Active

Ask: Field entry: "O=C(N[C@H](Cc1c[nH]c2ccccc12)C(=O)Nc1ccncc1)c1ccc(N2CCN(c3ccc(F)c(F)c3)CC2)cc1F"
Reply: Active

Ask: Field entry: "O=C(N[C@H](Cc1c[nH]c2ccccc12)C(=O)Nc1ccncc1)c1ccc(-c2ccc(F)c(F)c2)cc1F"
Reply: Active

Ask: Field entry: "O=C(N[C@H](Cc1c[nH]c2ccccc12)C(=O)Nc1ccncc1)c1ccc(-c2cccc(F)c2)cc1F"
Reply: Active

----------
- protocol: Cmax in mouse at 50 mg/kg, po in 20% Kolliphor
- Type: ADME, organism-based
- Set-up: dose 50 mg/kg, route oral
- measurement-parameters: in vivo
readout-label: Cmax (µM)

| substance-smiles | Cmax / µM |
| --- | --- |
| O=C(N[C@H](Cc1c[nH]c2ccccc12)C(=O)Nc1ccncc1)c1ccc(-c2cc(C(F)(F)F)ccc2F)cc1F | 13.6 |
| O=C(N[C@H](Cc1c[nH]c2ccccc12)C(=O)Nc1ccncc1)c1ccc(N2CCN(c3ccc(F)c(F)c3)CC2)cc1F | 2.08 |

[I] O=C(N[C@H](Cc1c[nH]c2ccccc12)C(=O)Nc1ccncc1)c1ccc(-c2ccc(F)c(C(F)(F)F)c2)cc1F
[II] O=C(N[C@H](Cc1c[nH]c2ccccc12)C(=O)Nc1ccncc1)c1ccc(-c2ccc(F)c(Cl)c2)cc1F
Ask: Response body: label of entry with the larger Cmax; valid values I , II . Mark your selection by writing its label.
Reply: II

[a] O=C(N[C@H](Cc1c[nH]c2ccccc12)C(=O)Nc1ccncc1)c1ccc(-c2ccc(F)c(F)c2)cc1F
[b] O=C(N[C@H](Cc1c[nH]c2ccccc12)C(=O)Nc1ccncc1)c1ccc(N2CCN(c3ccc(F)cc3F)CC2)cc1F
Ask: Hi there, can you help? I need to know whether a or b has lower measured Cmax. Mark your selection by writing its label.
Reply: a
(a: 3.71 µM, b: 5.94 µM)

Where do the numbers come from? From ChEMBL document CHEMBL3352430.
